# testedTarget: rhDectin-2 (Homo sapiens, UniProt Q6EIG7)
# Sequence (Q6EIG7 42-209 limits assumed): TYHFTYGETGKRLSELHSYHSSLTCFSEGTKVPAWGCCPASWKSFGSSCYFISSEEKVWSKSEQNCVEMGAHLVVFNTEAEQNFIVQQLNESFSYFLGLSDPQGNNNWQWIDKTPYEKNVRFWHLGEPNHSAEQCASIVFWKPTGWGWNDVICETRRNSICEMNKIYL

- structure: "C=CCO[C@H]1O[C@H](CO)[C@@H](OP(=O)(O)O[C@H]2O[C@H](CO)[C@@H](O)[C@H](O)[C@@H]2O)[C@H](O)[C@@H]1O"
  Kd: "13.6 µM"
